study system: panel of 442 kinases (Homo sapiens, UniProt Q9Y2H9)
Construct: purchased KINOMEscan
Sequence (Q9Y2H9 whole entry): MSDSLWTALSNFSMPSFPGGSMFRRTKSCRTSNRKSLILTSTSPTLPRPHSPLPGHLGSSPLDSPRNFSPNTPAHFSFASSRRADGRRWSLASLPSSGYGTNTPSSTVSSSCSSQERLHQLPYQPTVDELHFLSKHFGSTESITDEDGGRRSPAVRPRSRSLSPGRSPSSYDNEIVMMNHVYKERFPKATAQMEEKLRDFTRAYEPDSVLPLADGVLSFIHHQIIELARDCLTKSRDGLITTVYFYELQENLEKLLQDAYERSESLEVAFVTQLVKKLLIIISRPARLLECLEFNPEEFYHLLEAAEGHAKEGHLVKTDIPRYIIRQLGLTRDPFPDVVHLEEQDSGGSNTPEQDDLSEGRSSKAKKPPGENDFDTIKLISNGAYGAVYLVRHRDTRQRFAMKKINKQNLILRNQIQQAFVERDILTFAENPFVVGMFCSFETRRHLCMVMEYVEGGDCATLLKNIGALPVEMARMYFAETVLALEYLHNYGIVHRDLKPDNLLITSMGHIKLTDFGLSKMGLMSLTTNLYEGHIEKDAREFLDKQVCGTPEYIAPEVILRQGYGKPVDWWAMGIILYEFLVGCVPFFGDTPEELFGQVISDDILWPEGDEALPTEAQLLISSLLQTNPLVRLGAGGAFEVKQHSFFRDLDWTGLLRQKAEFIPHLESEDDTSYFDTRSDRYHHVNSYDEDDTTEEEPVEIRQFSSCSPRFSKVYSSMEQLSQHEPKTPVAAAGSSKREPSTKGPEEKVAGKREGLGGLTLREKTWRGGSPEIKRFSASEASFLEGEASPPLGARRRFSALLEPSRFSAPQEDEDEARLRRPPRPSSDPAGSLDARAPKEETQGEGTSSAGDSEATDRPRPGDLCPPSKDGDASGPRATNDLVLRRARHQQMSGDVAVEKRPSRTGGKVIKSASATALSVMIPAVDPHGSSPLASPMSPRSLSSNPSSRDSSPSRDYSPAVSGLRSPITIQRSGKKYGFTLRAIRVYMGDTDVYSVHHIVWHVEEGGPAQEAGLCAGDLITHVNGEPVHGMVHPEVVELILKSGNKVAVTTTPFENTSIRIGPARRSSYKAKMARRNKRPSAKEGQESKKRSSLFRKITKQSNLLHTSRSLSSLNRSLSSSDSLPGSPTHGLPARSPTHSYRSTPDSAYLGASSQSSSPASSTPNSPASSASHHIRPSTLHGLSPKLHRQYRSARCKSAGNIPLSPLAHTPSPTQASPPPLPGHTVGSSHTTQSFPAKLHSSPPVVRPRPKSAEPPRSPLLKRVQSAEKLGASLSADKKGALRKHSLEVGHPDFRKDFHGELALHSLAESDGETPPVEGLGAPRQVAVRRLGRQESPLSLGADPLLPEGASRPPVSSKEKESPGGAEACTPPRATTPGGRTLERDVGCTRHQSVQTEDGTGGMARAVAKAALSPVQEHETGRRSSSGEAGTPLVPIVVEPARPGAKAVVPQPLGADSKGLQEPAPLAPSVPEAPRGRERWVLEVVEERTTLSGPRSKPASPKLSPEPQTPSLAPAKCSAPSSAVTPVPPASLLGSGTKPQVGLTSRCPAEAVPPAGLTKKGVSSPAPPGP
Assay type: binding
measurement setup: Compound Concentration 10 µM
result type: KINOMEscan: MAST1
One number for each entry.

Some solved entries appear below for comparison.
[
  {
    "molecule": "COc1cc(C(=O)N2CCC(N3CCN(C)CC3)CC2)ccc1Nc1ncc2c(n1)N(C)c1ccccc1C(=O)N2C [15 (LRRK2-IN-1)]",
    "assay value": 100
  },
  {
    "molecule": "CCOc1cc(C(=O)N2CCC(N3CCN(C)CC3)CC2)ccc1Nc1ncc2c(n1)N(C1CCCC1)c1ccccc1C(=O)N2C [Compound 26]",
    "assay value": 100
  },
  {
    "molecule": "COc1cc(C(=O)N2CCC(N3CCN(C)CC3)CC2)ccc1Nc1ncc2c(n1)N(C1CCCC1)c1ccccc1C(=O)N2C [Compound 25]",
    "assay value": 78
  }
]

Next up:
Query block: For COc1cc(C(=O)N2CCC(N3CCN(C)CC3)CC2)ccc1Nc1ncc2c(n1)N1CCc3cccc(c31)C(=O)N2C [Compound 24] , write its KINOMEscan: MAST1.
Result block: 73

====

Assignment: determine reported KINOMEscan: EGFR(S752-I759del) for the given compounds.
study system: panel of 442 kinases (Homo sapiens, UniProt P00533, DEL752-759)
Construct: purchased KINOMEscan
Sequence (P00533 with tags, fused parts or gaps DEL752-759): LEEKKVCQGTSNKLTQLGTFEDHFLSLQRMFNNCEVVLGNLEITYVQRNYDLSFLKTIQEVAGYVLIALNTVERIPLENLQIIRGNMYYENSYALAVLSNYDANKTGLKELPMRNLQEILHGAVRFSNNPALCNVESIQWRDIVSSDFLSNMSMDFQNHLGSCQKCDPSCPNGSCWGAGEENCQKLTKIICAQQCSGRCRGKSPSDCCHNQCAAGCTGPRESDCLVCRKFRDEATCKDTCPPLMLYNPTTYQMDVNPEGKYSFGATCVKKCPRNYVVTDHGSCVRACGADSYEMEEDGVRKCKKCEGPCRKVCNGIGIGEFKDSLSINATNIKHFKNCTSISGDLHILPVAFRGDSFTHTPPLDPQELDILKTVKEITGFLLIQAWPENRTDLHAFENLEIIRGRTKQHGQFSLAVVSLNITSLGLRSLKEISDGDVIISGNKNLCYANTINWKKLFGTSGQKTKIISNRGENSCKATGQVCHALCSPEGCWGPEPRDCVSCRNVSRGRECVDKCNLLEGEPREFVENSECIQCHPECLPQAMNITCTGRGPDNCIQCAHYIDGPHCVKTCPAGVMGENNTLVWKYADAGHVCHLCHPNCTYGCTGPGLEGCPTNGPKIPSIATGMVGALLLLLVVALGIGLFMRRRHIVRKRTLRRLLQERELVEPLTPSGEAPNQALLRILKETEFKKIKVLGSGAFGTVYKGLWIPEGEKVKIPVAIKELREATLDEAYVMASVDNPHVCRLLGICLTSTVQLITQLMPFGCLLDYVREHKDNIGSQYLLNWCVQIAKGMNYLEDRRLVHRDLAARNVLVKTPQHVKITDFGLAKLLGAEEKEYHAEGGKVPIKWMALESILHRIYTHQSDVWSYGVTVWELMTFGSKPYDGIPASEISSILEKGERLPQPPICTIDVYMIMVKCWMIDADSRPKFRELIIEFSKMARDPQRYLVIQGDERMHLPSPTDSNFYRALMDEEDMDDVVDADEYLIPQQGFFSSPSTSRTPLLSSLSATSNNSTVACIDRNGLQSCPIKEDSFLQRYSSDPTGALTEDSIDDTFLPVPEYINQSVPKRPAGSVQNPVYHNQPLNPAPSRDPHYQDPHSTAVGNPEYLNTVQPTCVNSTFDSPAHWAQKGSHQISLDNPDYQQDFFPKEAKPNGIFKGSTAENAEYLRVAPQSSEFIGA
Type: binding
measurement setup: Compound Concentration 10 µM
Give bare numbers.

Known results for compounds:
[
  {
    "compound": "COc1cc(C(=O)N2CCC(N3CCN(C)CC3)CC2)ccc1Nc1ncc2c(n1)N(C)c1ccccc1C(=O)N2C [15 (LRRK2-IN-1)]",
    "result type": "KINOMEscan: EGFR(S752-I759del)",
    "assay value": 99
  },
  {
    "compound": "CCOc1cc(C(=O)N2CCC(N3CCN(C)CC3)CC2)ccc1Nc1ncc2c(n1)N(C1CCCC1)c1ccccc1C(=O)N2C [Compound 26]",
    "result type": "KINOMEscan: EGFR(S752-I759del)",
    "assay value": 86
  },
  {
    "compound": "COc1cc(C(=O)N2CCC(N3CCN(C)CC3)CC2)ccc1Nc1ncc2c(n1)N(C1CCCC1)c1ccccc1C(=O)N2C [Compound 25]",
    "result type": "KINOMEscan: EGFR(S752-I759del)",
    "assay value": 80
  }
]

Consider the additional compound presented here.
Query block: Recall and state the measured KINOMEscan: EGFR(S752-I759del) for COc1cc(C(=O)N2CCC(N3CCN(C)CC3)CC2)ccc1Nc1ncc2c(n1)N1CCc3cccc(c31)C(=O)N2C [Compound 24] .
Result block: 80

====

study system: panel of 442 kinases (Homo sapiens, UniProt Q9NSY1)
Construct: purchased KINOMEscan
Sequence (Q9NSY1 whole entry): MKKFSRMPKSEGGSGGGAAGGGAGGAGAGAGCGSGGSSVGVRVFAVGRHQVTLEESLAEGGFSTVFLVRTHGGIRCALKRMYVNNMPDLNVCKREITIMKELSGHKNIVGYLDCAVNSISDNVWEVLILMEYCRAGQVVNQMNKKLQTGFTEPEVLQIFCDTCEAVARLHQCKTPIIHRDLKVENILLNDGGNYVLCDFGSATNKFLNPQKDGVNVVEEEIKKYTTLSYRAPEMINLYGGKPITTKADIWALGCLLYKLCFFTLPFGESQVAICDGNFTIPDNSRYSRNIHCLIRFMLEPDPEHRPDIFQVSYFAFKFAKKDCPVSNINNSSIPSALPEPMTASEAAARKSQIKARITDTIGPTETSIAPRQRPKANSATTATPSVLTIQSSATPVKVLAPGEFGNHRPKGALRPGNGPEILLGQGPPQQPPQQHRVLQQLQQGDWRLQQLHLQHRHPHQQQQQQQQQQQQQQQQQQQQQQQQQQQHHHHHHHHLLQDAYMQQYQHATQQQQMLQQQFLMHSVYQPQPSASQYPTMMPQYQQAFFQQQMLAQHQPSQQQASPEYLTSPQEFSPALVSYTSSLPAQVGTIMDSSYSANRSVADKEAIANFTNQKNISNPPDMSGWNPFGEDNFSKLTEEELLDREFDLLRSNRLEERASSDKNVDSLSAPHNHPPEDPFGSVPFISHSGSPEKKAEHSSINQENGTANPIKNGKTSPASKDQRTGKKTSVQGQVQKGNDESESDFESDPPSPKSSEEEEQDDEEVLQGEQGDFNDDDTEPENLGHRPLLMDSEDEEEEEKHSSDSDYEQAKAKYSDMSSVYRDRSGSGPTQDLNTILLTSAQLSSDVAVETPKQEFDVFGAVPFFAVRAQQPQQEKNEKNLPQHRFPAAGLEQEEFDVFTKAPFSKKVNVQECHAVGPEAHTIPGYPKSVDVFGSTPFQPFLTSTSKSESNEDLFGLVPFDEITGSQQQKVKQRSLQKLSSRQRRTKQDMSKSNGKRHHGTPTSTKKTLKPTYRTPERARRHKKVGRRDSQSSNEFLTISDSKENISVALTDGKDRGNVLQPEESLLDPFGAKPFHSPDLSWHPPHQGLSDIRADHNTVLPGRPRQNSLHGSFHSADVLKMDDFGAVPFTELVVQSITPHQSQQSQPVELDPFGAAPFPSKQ
Assay type: binding
measurement setup: Compound Concentration 10 µM
For each of the compounds below, state its KINOMEscan: BIKE.
Give bare numbers.

As a guide, the following entries are already answered.
[
  {
    "compound": "COc1cc(C(=O)N2CCC(N3CCN(C)CC3)CC2)ccc1Nc1ncc2c(n1)N(C1CCCC1)c1ccccc1C(=O)N2C [Compound 25]",
    "assay value": 93
  },
  {
    "compound": "CCOc1cc(C(=O)N2CCC(N3CCN(C)CC3)CC2)ccc1Nc1ncc2c(n1)N(C1CCCC1)c1ccccc1C(=O)N2C [Compound 26]",
    "assay value": 100
  },
  {
    "compound": "COc1cc(C(=O)N2CCC(N3CCN(C)CC3)CC2)ccc1Nc1ncc2c(n1)N(C)c1ccccc1C(=O)N2C [15 (LRRK2-IN-1)]",
    "assay value": 100
  }
]

Query block: Report KINOMEscan: BIKE for COc1cc(C(=O)N2CCC(N3CCN(C)CC3)CC2)ccc1Nc1ncc2c(n1)N1CCc3cccc(c31)C(=O)N2C [Compound 24]
Result block: 73
